- System: FAP-expressing HEK293T:hFAP tumor xenografts
- assayText: Ex vivo biodistribution in HEK293T:hFAP tumor-bearing mice
- assayConditions: 1 h post injection, mean ± SD, n = 4
Adrenal glands uptake strictly less than 4 %ID/g = yes. Otherwise no.

See these solved cases before continuing.
N#C[C@@H]1CC(F)(F)CN1C(=O)CNC(=O)c1ccnc2ccc(OCCCN3CCN(C(=O)CN4CCN(CC(=O)[O-])CCN(CC(=O)[O-])CCN(CC(=O)[O-])CC4)CC3)cc12.[68Ga+3] [[^68Ga]Ga-FAPI-04, reference compound] :: yes
N#C[C@@H]1CC(F)(F)CN1C(=O)CNC(=O)c1ccnc2ccc(-c3cn(CC(=O)N[C@@H](CCCCNC(=O)CN4CCN(CC(=O)[O-])CCN(CC(=O)[O-])CCN(CC(=O)[O-])CC4)C(=O)NCC(=O)NC[C@H]4CC[C@H](C(=O)N[C@@H](Cc5c6ccccc6cc6ccccc56)C(=O)NCCCC[C@H](NC(=O)N[C@@H](CCC(=O)O)C(=O)O)C(=O)O)CC4)nn3)cc12.[68Ga+3] [[^68Ga]Ga-AV01030] :: yes
O=C([O-])CN1CCN(CC(=O)[O-])CCN(CC(=O)NC[C@H]2CC[C@H](C(=O)N[C@@H](Cc3c4ccccc4cc4ccccc34)C(=O)NCCCC[C@H](NC(=O)N[C@@H](CCC(=O)O)C(=O)O)C(=O)O)CC2)CCN(CC(=O)[O-])CC1.[68Ga+3] [[^68Ga]Ga-HTK03041, reference compound] :: no

Below: the item to evaluate.
INPUT: # check: Adrenal glands uptake < 4 %ID/g for N#C[C@@H]1CC(F)(F)CN1C(=O)CNC(=O)c1ccnc2ccc(OCc3cn(CC(=O)N[C@@H](CCCCNC(=O)CN4CCN(CC(=O)[O-])CCN(CC(=O)[O-])CCN(CC(=O)[O-])CC4)C(=O)NCC(=O)NC[C@H]4CC[C@H](C(=O)N[C@@H](Cc5c6ccccc6cc6ccccc56)C(=O)NCCCC[C@H](NC(=O)N[C@@H](CCC(=O)O)C(=O)O)C(=O)O)CC4)nn3)cc12.[68Ga+3] [[^68Ga]Ga-AV01038]
OUTPUT: no

* * *

- Test system: FAP-expressing HEK293T:hFAP tumor xenografts
- assayText: Ex vivo biodistribution in HEK293T:hFAP tumor-bearing mice
- assayConditions: 1 h post injection, mean ± SD, n = 4
endpointLabel: Small Intestine uptake (%ID/g)
Give bare numbers, in %ID/g.

Worked cases, answers included:
N#C[C@@H]1CC(F)(F)CN1C(=O)CNC(=O)c1ccnc2ccc(-c3cn(CC(=O)N[C@@H](CCCCNC(=O)CN4CCN(CC(=O)[O-])CCN(CC(=O)[O-])CCN(CC(=O)[O-])CC4)C(=O)NCC(=O)NC[C@H]4CC[C@H](C(=O)N[C@@H](Cc5c6ccccc6cc6ccccc56)C(=O)NCCCC[C@H](NC(=O)N[C@@H](CCC(=O)O)C(=O)O)C(=O)O)CC4)nn3)cc12.[68Ga+3] [[^68Ga]Ga-AV01030] :: 1.23
N#C[C@@H]1CC(F)(F)CN1C(=O)CNC(=O)c1ccnc2ccc(OCc3cn(CC(=O)N[C@@H](CCCCNC(=O)CN4CCN(CC(=O)[O-])CCN(CC(=O)[O-])CCN(CC(=O)[O-])CC4)C(=O)NCC(=O)NC[C@H]4CC[C@H](C(=O)N[C@@H](Cc5c6ccccc6cc6ccccc56)C(=O)NCCCC[C@H](NC(=O)N[C@@H](CCC(=O)O)C(=O)O)C(=O)O)CC4)nn3)cc12.[68Ga+3] [[^68Ga]Ga-AV01038] :: 1.70

For every record below, what is its Small Intestine uptake?
1. N#C[C@@H]1CC(F)(F)CN1C(=O)CNC(=O)c1ccnc2ccc(OCCCc3cn(CC(=O)N[C@@H](CCCCNC(=O)CN4CCN(CC(=O)[O-])CCN(CC(=O)[O-])CCN(CC(=O)[O-])CC4)C(=O)NCC(=O)NC[C@H]4CC[C@H](C(=O)N[C@@H](Cc5c6ccccc6cc6ccccc56)C(=O)NCCCC[C@H](NC(=O)N[C@@H](CCC(=O)O)C(=O)O)C(=O)O)CC4)nn3)cc12.[68Ga+3] [[^68Ga]Ga-AV01017]
2. O=C([O-])CN1CCN(CC(=O)[O-])CCN(CC(=O)NC[C@H]2CC[C@H](C(=O)N[C@@H](Cc3c4ccccc4cc4ccccc34)C(=O)NCCCC[C@H](NC(=O)N[C@@H](CCC(=O)O)C(=O)O)C(=O)O)CC2)CCN(CC(=O)[O-])CC1.[68Ga+3] [[^68Ga]Ga-HTK03041, reference compound]
3. N#C[C@@H]1CC(F)(F)CN1C(=O)CNC(=O)c1ccnc2ccc(OCCCN3CCN(C(=O)CN4CCN(CC(=O)[O-])CCN(CC(=O)[O-])CCN(CC(=O)[O-])CC4)CC3)cc12.[68Ga+3] [[^68Ga]Ga-FAPI-04, reference compound]

OUTPUT:
2.14
0.71
0.36

* * *

- System: PSMA-expressing LNCaP tumor xenografts
- assayText: Ex vivo biodistribution in LNCaP tumor-bearing mice
- assayConditions: LNCaP tumor-bearing mice, 1 h post injection, mean ± SD, n = 4
endpointLabel: Lacrimal glands uptake

Worked cases, answers included:
N#C[C@@H]1CC(F)(F)CN1C(=O)CNC(=O)c1ccnc2ccc(OCCCN3CCN(C(=O)CN4CCN(CC(=O)[O-])CCN(CC(=O)[O-])CCN(CC(=O)[O-])CC4)CC3)cc12.[68Ga+3] [[^68Ga]Ga-FAPI-04, reference compound] :: 0.06 ± 0.07 %ID/g
N#C[C@@H]1CC(F)(F)CN1C(=O)CNC(=O)c1ccnc2ccc(OCc3cn(CC(=O)N[C@@H](CCCCNC(=O)CN4CCN(CC(=O)[O-])CCN(CC(=O)[O-])CCN(CC(=O)[O-])CC4)C(=O)NCC(=O)NC[C@H]4CC[C@H](C(=O)N[C@@H](Cc5c6ccccc6cc6ccccc56)C(=O)NCCCC[C@H](NC(=O)N[C@@H](CCC(=O)O)C(=O)O)C(=O)O)CC4)nn3)cc12.[68Ga+3] [[^68Ga]Ga-AV01038] :: 0.06 ± 0.13 %ID/g
N#C[C@@H]1CC(F)(F)CN1C(=O)CNC(=O)c1ccnc2ccc(-c3cn(CC(=O)N[C@@H](CCCCNC(=O)CN4CCN(CC(=O)[O-])CCN(CC(=O)[O-])CCN(CC(=O)[O-])CC4)C(=O)NCC(=O)NC[C@H]4CC[C@H](C(=O)N[C@@H](Cc5c6ccccc6cc6ccccc56)C(=O)NCCCC[C@H](NC(=O)N[C@@H](CCC(=O)O)C(=O)O)C(=O)O)CC4)nn3)cc12.[68Ga+3] [[^68Ga]Ga-AV01030] :: 0.44 ± 0.68 %ID/g

INPUT: Fill in: Lacrimal glands uptake of N#C[C@@H]1CC(F)(F)CN1C(=O)CNC(=O)c1ccnc2ccc(OCCCc3cn(CC(=O)N[C@@H](CCCCNC(=O)CN4CCN(CC(=O)[O-])CCN(CC(=O)[O-])CCN(CC(=O)[O-])CC4)C(=O)NCC(=O)NC[C@H]4CC[C@H](C(=O)N[C@@H](Cc5c6ccccc6cc6ccccc56)C(=O)NCCCC[C@H](NC(=O)N[C@@H](CCC(=O)O)C(=O)O)C(=O)O)CC4)nn3)cc12.[68Ga+3] [[^68Ga]Ga-AV01017] is ___
OUTPUT: 0.13 ± 0.27 %ID/g

* * *

- Test system: FAP-expressing HEK293T:hFAP tumor xenografts
- assayText: Ex vivo biodistribution in HEK293T:hFAP tumor-bearing mice
- assayConditions: 1 h post injection, mean ± SD, n = 4
endpointLabel: Brain uptake (%ID/g)
Answers are plain numbers, in %ID/g.

Worked cases, answers included:
N#C[C@@H]1CC(F)(F)CN1C(=O)CNC(=O)c1ccnc2ccc(-c3cn(CC(=O)N[C@@H](CCCCNC(=O)CN4CCN(CC(=O)[O-])CCN(CC(=O)[O-])CCN(CC(=O)[O-])CC4)C(=O)NCC(=O)NC[C@H]4CC[C@H](C(=O)N[C@@H](Cc5c6ccccc6cc6ccccc56)C(=O)NCCCC[C@H](NC(=O)N[C@@H](CCC(=O)O)C(=O)O)C(=O)O)CC4)nn3)cc12.[68Ga+3] [[^68Ga]Ga-AV01030] :: 0.12
O=C([O-])CN1CCN(CC(=O)[O-])CCN(CC(=O)NC[C@H]2CC[C@H](C(=O)N[C@@H](Cc3c4ccccc4cc4ccccc34)C(=O)NCCCC[C@H](NC(=O)N[C@@H](CCC(=O)O)C(=O)O)C(=O)O)CC2)CCN(CC(=O)[O-])CC1.[68Ga+3] [[^68Ga]Ga-HTK03041, reference compound] :: 0.03

We now examine a further compound.
INPUT: Fill in: Brain uptake of N#C[C@@H]1CC(F)(F)CN1C(=O)CNC(=O)c1ccnc2ccc(OCCCN3CCN(C(=O)CN4CCN(CC(=O)[O-])CCN(CC(=O)[O-])CCN(CC(=O)[O-])CC4)CC3)cc12.[68Ga+3] [[^68Ga]Ga-FAPI-04, reference compound] is ___
OUTPUT: 0.04
